- studyTarget: Cannabinoid receptor 1 (Homo sapiens, UniProt P21554)
- Sequence (P21554 whole entry): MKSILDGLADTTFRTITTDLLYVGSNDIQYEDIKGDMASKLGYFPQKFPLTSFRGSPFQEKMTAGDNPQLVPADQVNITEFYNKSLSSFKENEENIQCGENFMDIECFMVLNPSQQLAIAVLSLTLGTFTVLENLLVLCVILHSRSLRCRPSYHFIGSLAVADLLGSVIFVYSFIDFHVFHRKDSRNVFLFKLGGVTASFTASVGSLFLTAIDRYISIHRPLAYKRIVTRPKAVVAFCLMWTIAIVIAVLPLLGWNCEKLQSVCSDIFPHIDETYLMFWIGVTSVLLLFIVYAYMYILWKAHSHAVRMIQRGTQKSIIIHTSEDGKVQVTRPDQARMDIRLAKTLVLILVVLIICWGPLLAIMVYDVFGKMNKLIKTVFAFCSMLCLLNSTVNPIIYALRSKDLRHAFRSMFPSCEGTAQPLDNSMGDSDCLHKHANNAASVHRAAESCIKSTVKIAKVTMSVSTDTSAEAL
- testDetails: Displacement of [3H]CP-55,940 from human recombinant CB1 receptor expressed in CHO cell membranes after 90 mins by scintillation counting analysis
endpoint: Ki

Input CCCCCn1cc(C(=O)NC2CCCCC2)c(=O)c2c(-c3ccccc3)nn(C)c21 . Output Ki: > 10 µM

Below is a list of molecules. For each, state its recorded Ki.
1. Cc1ccc(Cn2cc(C(=O)NC3CCCCC3)c(=O)c3c(C)nn(C)c32)cc1
2. CCCCCn1cc(C(=O)NC23CC4CC(CC(C4)C2)C3)c(=O)c2cnn(C)c21

**A:**
1: > 10 µM; 2: 4.75 µM

Value sought for every listed molecule: Ki.
1. CCCCCn1cc(C(=O)NC23CC4CC(CC(C4)C2)C3)c(=O)c2c(C(C)(C)C)nn(C)c21
2. CCCCCn1cc(C(=O)NC2CCCCC2)c(=O)c2c(-c3ccc(Cl)cc3)nn(C)c21
3. CCCCCn1cc(C(=O)NC2CCCCCC2)c(=O)c2c(-c3ccc(Cl)cc3)nn(C)c21
4. CCCCCn1cc(C(=O)NCc2ccccc2)c(=O)c2c(C)nn(C)c21
5. CCCCCn1cc(C(=O)Nc2ccccc2)c(=O)c2c(C)nn(C)c21

**A:**
1: 3.75 µM; 2: > 10 µM; 3: > 10 µM; 4: > 10 µM; 5: 0.865 µM

Notebook: CCCCCn1cc(C(=O)NC2CCCCC2)c(=O)c2c(C(C)(C)C)nn(C)c21 , Ki read as > 10 µM
